Recorded measurements of inhibition at 100 µM, one per entry
Test system: PAF-induced aggregation (rabbit platelet plasma)
Experiment: Platelet aggregation inhibitory action on PAF-induced aggregation
Type: cell-based
Conditions: Oryctolagus cuniculus, 0.05 h, 100 μM, PAF 10-50 μg/ml, 37° C., 3 min incubation, hydrochloride salt, read-out: inhibition ratio, PAF-induced platelet aggregation
Your answer is read as %, so omit the unit and give the number.

Some solved entries appear below for comparison.
>>> data_value("CCCCCCc1nc2c(nc1OCCN1CCN(CCCC)CC1)CCCC2")
94
>>> data_value("CCc1nc(C)c(C)nc1OC(C(=O)NCCN1CCN(Cc2ccccc2)CC1)c1ccccc1 (centres unmarked)")
43
>>> data_value("CCc1nc(C)c(C)nc1OC(C(=O)NCCN1CCCN(Cc2ccc(Cl)cc2)CC1)c1ccccc1 (centres unmarked)")
70
>>> data_value("CCc1nc(C)c(C)nc1OCCN1CCCN(Cc2ccc(F)cc2)CC1")
42
>>> data_value("CCc1nc(C)c(C)nc1OCCN1CCCN(Cc2ccc([N+](=O)[O-])cc2)CC1")
81
>>> data_value("CCCCCCCCCCc1nc2c(nc1OCCN1CCN(CCCC)CC1)CCCC2")
91

Item: "CCc1nc(OCCN2CCCN(Cc3ccc(OC)cc3)CC2)c(C(C)C)nc1CC" | System: PAF-induced aggregation (rabbit platelet plasma) | inhibition at 100 µM: 82

Lab note: compound "CCCCCCCc1nc2c(nc1OCCN1CCN(CCCC)CC1)CCCC2" tested on PAF-induced aggregation (rabbit platelet plasma); recorded inhibition at 100 µM was 88

###

Test system: lipoperoxide generation in rat cerebrum
Assay: Antioxidant activity (inhibition of lipoperoxide generation, method of Stocks et al.)
Type: biochemical
Settings: 100 μM; rat cerebrum supernatant, 37° C., 15 min, thiobarbituric acid, 532 nm; hydrochloride salt
measured_parameter: inhibition ratio, lipoperoxide generation (antioxidant activity) (%)
State just the number; it will be interpreted in %.

>>> data_value("CCCCCCCCCCc1nc2c(nc1OCCN1CCN(CCCC)CC1)CCCC2 [Compound 587]")
65
>>> data_value("CCCCCCCCCCCCCCCCc1nc2c(nc1OCCN1CCN(CCCC)CC1)CCCC2 [Compound 607]")
52

Recorded result, CCCCCCCCc1nc2c(nc1OCCN1CCN(c3ccccc3)CC1)CCCC2 [Compound 577] , inhibition ratio, lipoperoxide generation (antioxidant activity): 71

// recorded inhibition ratio, lipoperoxide generation (antioxidant activity) for CCCCCCCCCCc1nc2c(nc1OCCN1CCCN(Cc3ccc(F)cc3)CC1)CCCC2 [Compound 592] : 85

inhibition ratio, lipoperoxide generation (antioxidant activity) measured on CCCCCCCCCc1nc2c(nc1OCCN1CCN(CCCC)CC1)CCCC2 [Compound 580] = 77

Short answer for CCCCCCCCCCCCc1nc2c(nc1OCCN1CCN(Cc3ccccc3)CC1)CCCC2 [Compound 596] : inhibition ratio, lipoperoxide generation (antioxidant activity) was 73

// sample CCc1nc(Cc2ccccc2)c(OCC(=O)NCCN2CCN(Cc3ccc(Cl)cc3)CC2)nc1CC [Compound 379] , its inhibition ratio, lipoperoxide generation (antioxidant activity) was 50

According to the records, this compound CCCCCCCCCCCCc1nc2c(nc1OCCN1CCN(Cc3ccc(OC)cc3)CC1)CCCC2 [Compound 597] displays inhibition ratio, lipoperoxide generation (antioxidant activity) of 76

Data provenance: patent US4894453A
